Cited source for all entries: PubChem BioAssay (NCI)

Assay: NCI Yeast Anticancer Drug Screen. Data for the sgs1 mgt1 strain (AID 161);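 further: 0% = growth of cultures given vehicle only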
Conditions: S. cerevisiae sgs1 mgt1 strain, at 50.0 µM (retest, dose inferred, filed as 5.0), hits give high values
Experimental: Growth inhibition of yeast strains with defined genetic alterations is measured as a screen for potential anti-cancer activity. Selected strains with alterations in DNA damage repair or cell cycle control were exposed to compounds and growth inhibition was measured relative to vehicle treated controls. The strain used in this assay is sgs1 mgt1
About 79,000 compounds went through this panel and 15% of them were active in at least one assay; those are over-represented in the sample as a whole.
# growth inhibition values compiled below

molecule	growth inhibition, %
C[n+]1c2ccccc2cc2[nH]c3ccccc3c21	98
CC1=C(C(=O)Nc2ccc([N+](=O)[O-])cc2)C(c2ccccc2F)C(C(=O)Nc2ccc([N+](=O)[O-])cc2)=C(C)N1	2
CCOC(=O)c1ccc(C(C)C)cc1	94
O=[N+]([O-])c1ccc(O)c(C=Nc2ccccc2)c1	0
O=C(NC(Cc1ccc(I)cc1)C(=O)O)c1cccc(Br)c1 (configuration not stated)	37
CCOC(=O)c1cnn(-c2ccccc2)c1N	98
Cc1ccc(-c2ccccc2)n1-c1cc(Cl)ccc1O	99

----------
Experiment: NCI Yeast Anticancer Drug Screen. Data for the bub3 strain (AID 167)
Settings: S. cerevisiae bub3 mutant strain, at 50.0 µM (retest, dose inferred, filed as 5.0)
This is part of a sample that, as a whole, favours compounds with a hit. Of some 79,000 tested, about 15% had one in any assay. Calls of active or inactive are those of the source. Rule as the data show it: active = growth inhibition above about 70%; inactive = the rest.
Outcomes: True for active, False for inactive

compound	category
O=C(CNCc1ccccc1)c1ccc(Cl)cc1	False
O=C(C1=NNC(c2ccccc2)C1C(=O)c1ccccc1)c1ccccc1 (stereo not drawn)	True
O=C1c2scc(-c3ccccc3)c2-n2cccc21	True

----------
Test: NCI Yeast Anticancer Drug Screen. Data for the cln2 rad14 strain (AID 165);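 further: 0% = growth equal to vehicle treated cultures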
Settings: S. cerevisiae cln2 rad14 strain, at 50.0 µM
Compounds without any hit were thinned out: in the full panel of roughly 79,000, 15% have a hit. Active and inactive are the calls of the source. Rule as the data show it: active = growth inhibition above about 70%; inactive = the rest. Where a SMILES comes first, the peptide text is derived from it. The star is where a group is joined. X7 = Clc1c(Cl)c(Cl)c(O*)c(Cl)c1Cl; Boc = CC(C)(C)OC(=O)*; OBn = c1ccc(CO*)cc1; Bn = c1ccc(C*)cc1
Outcomes: 1.0 (active), 0.0 (inactive)

compound	category
CC(Cc1ccccc1)NN1CCOC(c2ccccc2)C1C (stereo unspecified)	0.0
O=c1ncccn1[C@@H]1O[C@H](CO)[C@H](O)C1O (stereo partly specified)	0.0
CC(C)CC(NC(=O)C(CCC(=O)OCc1ccccc1)NC(=O)OC(C)(C)C)C(=O)NC(COCc1ccccc1)C(=O)NC(Cc1ccccc1)C(=O)Oc1c(Cl)c(Cl)c(Cl)c(Cl)c1Cl (stereo unspecified) (Boc-E(OBn)LS(Bn)F-X7; configuration not given here)	1.0
CCCCCCCCCCCCOC(=O)C[N+]1(C)CCCCC1	1.0
O=C(O)Cc1cc(I)c(Oc2ccc(O)c(I)c2)c(I)c1	1.0
O=C(O)c1ccccc1-c1c2ccc(=O)c(Br)c-2oc2c(Br)c(O)ccc12	1.0
O=[N+]([O-])c1cccc(C=Nc2ccccc2O)c1	0.0
CN(Cc1cnc2nc(N)nc(N)c2n1)c1ccc(C(=O)NC(CCC(=O)O)C(=O)O)c(Cl)c1Cl (stereo unspecified)	0.0
O=Cc1c(I)cc(I)c(O)c1I	1.0
COc1ccc(C(=O)OC(=O)c2ccc(OC)cc2)cc1	0.0
CCC1C(c2cccc(OC)c2O)c2cc3c(cc2OC1N1CCCC1)OCO3 (stereo unspecified)	0.0
COC1=CC(=O)c2ncccc2C1=O	1.0
CCCC/C(=C\c1cc(Cl)c(O)c(Cl)c1)C(=O)O	1.0
NNC(=O)N/N=C(\CC1(O)C(=O)Nc2c(Cl)ccc(Cl)c21)c1ccc(F)cc1 (stereo unspecified)	0.0
CCOC(=O)C(NS(=O)(=O)c1ccccc1)(C(F)(F)F)P(=O)(OCC(C)C)OCC(C)C (stereo unspecified)	1.0
C#CCNC(C)(C)C	1.0
CCCCN(CCCC)CC(=O)c1ccc2cc(Cl)c3ccccc3c2c1	1.0
CCCCCCCCCCCCCCCCN1CCSCC1	1.0
c1ccc2c(c1)Nc1ccc3ccccc3c1S2	0.0
O=C1C(Cl)=C(Cl)C(=O)C2=C1CC(Cl)C(Cl)C2 (stereo unspecified)	1.0
CCC12C=CCN3CCC4(c5cc(C(c6ccccn6)c6cc7ccccc7n6C)c(OC)cc5N(C)C4C(O)(C(=O)OC)C1OC(C)=O)C32 (stereo unspecified)	1.0
Cc1ccc(/C=N/NC(N)=S)cc1C	0.0
C#Cc1cccc(N=Cc2cc(Cl)cc(Cl)c2O)c1	0.0
Cc1cc2c(cc1C)[n+]([O-])c(-c1c(Cl)cccc1Cl)c(N)[n+]2[O-]	0.0
O=C1c2cccc(NCCNCCO)c2C(=O)c2cccc(NCCNCCO)c21	0.0
O=Nc1c(NO)c2ccccc2c2ccccc12	1.0
Cc1nn(-c2ccc(S(=O)(=O)[O-])cc2)c([O-])c1N=[N+](C)c1ccc(-c2ccc(N=Nc3ccc4c(S(=O)(=O)[O-])cc(S(=O)(=O)[O-])c(N)c4c3[O-])c([O-])c2)cc1[O-].[Cu+2].[Cu+2].[Na+]	0.0
O=C(O)c1ccccc1C1c2ccccc2Oc2ccccc21	1.0
CC12CCC(=O)C=C1CCC1C2C(O)CC2(C)C(c3csc(N)n3)CCC12 (stereo unspecified)	1.0
COc1cccc(/C=C2\CCC(CN(C)C)C2=O)c1 (stereo unspecified)	1.0
CC1(c2cccs2)C(C#N)(C#N)C1(C#N)C#N	1.0
O=S(=O)(/C=C/c1cccnc1)/C=C/c1cccnc1	1.0
CCOC(=O)C(NNc1ccccc1)C(c1ccccc1)[P+](c1ccccc1)(c1ccccc1)c1ccccc1 (stereo unspecified)	1.0
COC(C(=O)O)c1ccccc1 (stereo unspecified)	0.0
Nc1cc(Br)c2cccnc2c1O	1.0
O=C(O)c1ccc2c(Br)ccc3c2c1CC3	0.0
